Cited source for all entries: patent US10551389B2

system_tested: Bcl-XL (Homo sapiens, UniProt Q07817)
Sequence (Q07817 whole entry, species assumed): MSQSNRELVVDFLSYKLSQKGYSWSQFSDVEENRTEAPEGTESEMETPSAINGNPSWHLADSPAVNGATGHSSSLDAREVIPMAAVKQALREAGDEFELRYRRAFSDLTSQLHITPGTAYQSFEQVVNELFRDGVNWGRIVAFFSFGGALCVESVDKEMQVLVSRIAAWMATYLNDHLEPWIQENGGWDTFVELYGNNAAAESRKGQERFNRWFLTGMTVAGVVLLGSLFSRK
measurement_protocol: Inhibition of Bcl-XL (disruption of Bcl-XL/Bim interaction)
Format: binding
details: compound at 25 μM
value_kind: % Inhibition (25 μM) Bcl-XL (%)

(I) COc1cccc(CN(CCSc2ccccc2)Cc2ccc(S(=O)(=O)NC(=O)c3ccc4c(c3)c(C(=O)c3cccs3)cn4C)cc2)c1
(II) COc1cccc(CN(CCSc2ccccc2)Cc2ccc(S(=O)(=O)NC(=O)c3ccc(-c4ccccn4)cc3)cc2)c1
query: Form: Entry with minimum % Inhibition (25 μM) Bcl-XL (choose one): I / II Indicate which entry you chose by stating its label.
result: I
